- assay_overview: yeast growth modulation, basal conditions, primary screen, YJM789 clinical isolate, OD600, 24 h (AID 1089);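 further: growth of clinical yeast isolate S. cerevisiae YJM 789 seeded 1000 cells per well; test concentration not given here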
- test_parameters: S. cerevisiae YJM789 growth, higher = more signal, called active from +8 up or from −8 down
Label scheme for z-score: lower than 0.6 is criterion not met, 0.6 and above is criterion met.

These solved cases illustrate the format of a correct answer.
INSERT INTO results (compound, class) VALUES
  ('CC(C)c1ccc(NN2C(C(O)C(C)c3ccccc3)C=CC3C(=O)N(c4ccccc4)C(=O)C32)cc1 (configuration not stated)', 'criterion not met'),
  ('COC(=O)C(CC#Cc1ccc2c(c1)[C@]1(C(=O)N2)[C@H](C(N)=O)[C@H]2C(=O)O[C@H](c3ccccc3)[C@H](c3ccccc3)N2[C@@H]1c1ccccc1OCCO)C(=O)OC', 'criterion met'),
  ('CC(C)N1C(=O)[C@@]2(Cc3ccccc31)c1ccccc1C(=O)N(Cc1ccccc1)[C@H]2c1ccc(CO)cc1', 'criterion met');

Task item: Please tell me: is the compound CC(C)(C)OC(=O)CC[C@@]1(C(=O)N2CCOCC2)N=C(c2ccc(OCCCO)cc2)O[C@@H]1c1ccccc1CN=[N+]=[N-] at or over 0.6 in terms of z-score?
Reply: criterion not met

Task item: Please tell me: is the compound C[C@]1(C(=O)O)c2ccccc2C(=O)N(Cc2cc(C(F)(F)F)cc(C(F)(F)F)c2)[C@H]1c1ccc(CO)cc1 at or over 0.6 in terms of z-score?
Reply: criterion met

Task item: Please tell me: is the compound O=C1C2C=CC(C(O)C3CC=CCC3)N(Nc3ccc([N+](=O)[O-])cc3)C2C(=O)N1c1ccccc1 (configuration not stated) at or over 0.6 in terms of z-score?
Reply: criterion not met

Task item: Please tell me: is the compound COC(=O)[C@@]1(Cc2ccc(F)cc2)[C@H]2c3cc(C(=O)N4CCCC4)n(Cc4ccc(OC(F)(F)F)cc4)c3C[C@H]2CN1C(=O)c1ccccc1 at or over 0.6 in terms of z-score?
Reply: criterion met

---

- assay_overview: PSAC antagonists in infected red cells, primary screen, cell-based, P. falciparum Indochina, OD700, 1 h (AID 1154)
- test_parameters: P. falciparum Indochina infected RBC osmotic lysis, called active from +8 up or from −8 down
Activity calls are given as the source filed them.
Valid outcomes are listed here; reply with one: 1 (yes) for active, 0 (no) for inactive

These solved cases illustrate the format of a correct answer.
INSERT INTO measurements (compound, class) VALUES
  ('COc1ccc(C#Cc2ccc3c(c2)[C@]2(C(=O)N3)[C@H](c3ccccc3OCCO)N3[C@H](c4ccccc4)[C@H](c4ccccc4)OC(=O)[C@H]3[C@@H]2C(=O)NC[C@H](O)c2ccccc2)cc1', '0 (no)'),
  ('C[C@]1(C(=O)O)c2ccccc2C(=O)N(Cc2cc(C(F)(F)F)cc(C(F)(F)F)c2)[C@H]1c1ccc(CO)cc1', '0 (no)'),
  ('C=C(/C=C\CNS(=O)(=O)c1ccc(C)cc1)[C@H](O)[C@H]1CCCN1S(=O)(=O)c1ccccc1[N+](=O)[O-]', '1 (yes)');

Task item: GET /call?item= OCCCc1cc[n+](Cc2cc3c(cc2Br)OCO3)cc1 returns the recorded outcome of this test.
Reply: 0 (no)

Task item: GET /call?item= COC(=O)C(CC#Cc1ccc2c(c1)[C@]1(C(=O)N2)[C@H](C(=O)N2CCN(c3ncccn3)CC2)[C@H]2C(=O)O[C@H](c3ccccc3)[C@H](c3ccccc3)N2[C@@H]1c1ccc(O)cc1)C(=O)OC returns the recorded outcome of this test.
Reply: 0 (no)

Task item: GET /call?item= C=CC[C@]1(C(=O)NCCN2CCOCC2)N=C(c2ccc(OCCCO)cc2)O[C@H]1c1ccccc1 returns the recorded outcome of this test.
Reply: 0 (no)

Task item: GET /call?item= C=C[C@H](OC)[C@@H](O)c1ccc(OC)c(O)c1 returns the recorded outcome of this test.
Reply: 0 (no)

Task item: GET /call?item= CN1C(=O)C2CC=C(C3=CCO[C@@H]3[C@H]3CCCN3S(=O)(=O)c3ccccc3[N+](=O)[O-])CC2C1=O (stereo partly drawn) returns the recorded outcome of this test.
Reply: 0 (no)

---

- assay_overview: A549 lung cancer cell viability effects, profiling panel, resazurin fluorescence, 24 h, PK04 Diversity Set (AID 1171); further: test concentration not given here
- test_parameters: higher = more signal, called active from +8 up or from −8 down
Label scheme for z-score: lower than 0.2 is 0 (no), 0.2 and above is 1 (yes).

INSERT INTO results (molecule, class) VALUES
  ('CN(C)C(=O)[C@]1(CCS(=O)(=O)c2ccccc2)N=C(c2ccc(OCCCO)cc2)O[C@@H]1c1ccccc1CN=[N+]=[N-]', '1 (yes)'),
  ('COC(=O)C(CC#Cc1ccc2c(c1)[C@]1(C(=O)N2)[C@H](C(=O)N2CCN(c3ncccn3)CC2)[C@H]2C(=O)O[C@H](c3ccccc3)[C@H](c3ccccc3)N2[C@@H]1c1ccc(O)cc1)C(=O)OC', '0 (no)'),
  ('CC[C@@H](O[Si](C#C[Si](C(C)C)(C(C)C)C(C)C)(C(C)C)C(C)C)c1cn(Cc2cccc(Cl)c2)nn1', '1 (yes)'),
  ('CN1C2C=C(c3ccc(CO)cc3)C(C3C(=O)N(C(N)=O)C(=O)C32)C1C1CC1 (stereo unspecified)', '0 (no)'),
  ('CC(=O)NCCCC[C@@H]1NC(=O)[C@H]2C[C@@H](C(=O)O)[C@@H](c3cccc(OCCO)c3)N2C1=O', '1 (yes)');

Attention now shifts to the item below.
Task item: Please tell me: is the molecule C=CCNC(=O)[C@@H]1[C@H]2C(=O)O[C@H](c3ccccc3)[C@H](c3ccccc3)N2[C@H](c2ccc(O)cc2)[C@@]12C(=O)N(C(=O)OCCOC)c1ccc(C#CCC(C(=O)OC)C(=O)OC)cc12 at or over 0.2 in terms of z-score?
Reply: 0 (no)

---

Item-by-item account of z-score
- assay_overview: A549 cell viability effects, profiling panel, calcein-AM fluorescence, 48 h, basal (AID 1162); further: test concentration not given here
- test_parameters: higher = more signal
When you answer, write just the number.

Task item: Item COC(=O)[C@]1(Cc2ccccc2CN=[N+]=[N-])N=C(c2ccc(OCCCO)cc2)O[C@@H]1c1ccccc1N=[N+]=[N-] has what recorded z-score?
Reply: -3.25

Task item: Item CC(=O)NCCCC[C@@H]1NC(=O)[C@H]2C[C@@H](C(=O)O)[C@@H](c3cccc(OCCO)c3)N2C1=O has what recorded z-score?
Reply: -0.103

Task item: Item Cc1ccc(S[C@]2(C(=O)NC(C)C)CC(=O)N(Cc3ccccc3)[C@@H]2c2ccc(CO)cc2)cc1 has what recorded z-score?
Reply: 1.72

---

- assay_overview: small-molecule microarray binders of probe aXIP, primary screen, biochemical, NeuroSMM set, 635/667 nm fluorescence (AID 1119);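 further: probe is the protein aXip251-270 applied at 1 µg/mL to compound-printed slides; binding of probe to printed compounds measured as 667 nm fluorescence plus signal to noise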
- test_parameters: higher = more signal, called active from +8 up or from −8 down
Active and inactive are the calls of the source.
readout_kind: composite Z-score

Examples from the recorded data:
INSERT INTO assay_data (compound, measured_result) VALUES
  ('COC(=O)[C@@]1(Cc2ccccc2)[C@H]2c3cc(C(=O)N(C)C)n(Cc4ccc(Cl)c(C(F)(F)F)c4)c3C[C@H]2CN1C(=O)c1ccccc1', '-0.215 (inactive)'),
  ('CC(C)N1C(=O)[C@@]2(Cc3ccccc31)c1ccccc1C(=O)N(Cc1ccccc1C(F)(F)F)[C@H]2c1ccc(CO)cc1', '0.795 (inactive)'),
  ('COCCOC(=O)N1C(=O)[C@@]2(c3cc(C#CCC(C(=O)OC)C(=O)OC)ccc31)[C@H](c1ccc(O)cc1)N1[C@H](c3ccccc3)[C@H](c3ccccc3)OC(=O)[C@H]1[C@@H]2C(=O)N1CCc2cc(OC)c(OC)cc2C1', '-0.262 (inactive)'),
  ('CCN1C(=O)C2CC(=O)C3C(CN(S(=O)(=O)c4ccc(C)cc4)C3c3ccc(C)cc3)C2C1=O (stereo unspecified)', '0.37 (inactive)'),
  ('C[C@@]1([C@@H](NS(=O)(=O)c2cccc3cccnc23)c2ccc(-c3ccccc3)cc2)C[C@H]1C1CCCCC1', '-0.343 (inactive)');

Task item: Item COC(=O)[C@@]1(Cc2ccccc2)[C@H]2c3cc(C(=O)N(C)C)n(Cc4nc5ccccc5[nH]4)c3C[C@H]2CN1C(=O)c1ccccc1 has what recorded composite Z-score?
Reply: 0.0729 (inactive)

---

- assay_overview: small-molecule microarray binders of probe aNog, primary screen, biochemical, biotinylated probe, 635/667 nm fluorescence (AID 1115);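 further: probe is biotinylated aNog protein used at 0.15 µg/mL for 1 h at 4 C; z-score combines 667 nm fluorescence of each spot with its signal to noise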
- test_parameters: higher = more signal
readout_kind: composite z-score
When you answer, write just the number.

INSERT INTO assay_data (compound, measured_result) VALUES
  ('CCCCC=C[C@@H](NC(=O)C(C)(C)C)c1ccccc1', 0.863),
  ('CC1C2C(CCCO)=CC(C3C(=O)N(C)C(=O)C23)N1Cc1cccc(OC(F)(F)F)c1 (configuration not stated)', 1.64),
  ('CN1C2C=C(c3ccc(CO)cc3)C(C3C(=O)N(C(N)=O)C(=O)C32)C1C1CC1 (configuration not stated)', -0.226),
  ('COCCCNC(=O)[C@@]1(CCC(=O)OC(C)(C)C)N=C(c2ccc(OCCCO)cc2)O[C@H]1c1ccccc1', 1.83),
  ('C=C(C)C1CN([C@H](CO)c2ccccc2)C(=O)/C1=C\c1ccccc1 (some centres not stated)', 0.172),
  ('O=C1O[C@H](c2ccccc2)[C@H](c2ccccc2)N2[C@H]1[C@@H](C(=O)N1CCN(c3ncccn3)CC1)[C@]1(C(=O)Nc3ccc(C#CC4(O)CCCCCC4)cc31)[C@H]2c1ccc(O)cc1', -0.0496),
  ('COC(=O)[C@@]1(Cc2ccccc2)[C@H]2c3cc(C(=O)N(C)C)n(Cc4ccc(Cl)c(C(F)(F)F)c4)c3C[C@H]2CN1C(=O)c1ccccc1', 1.91),
  ('C[C@@]1([C@@H](NS(=O)(=O)c2cccc3cccnc23)c2ccc(-c3ccccc3)cc2)C[C@H]1C1CCCCC1', 2),
  ('Cc1ccc(S(=O)(=O)N2[C@@H](c3ccccc3)C(C(=O)O)=CC[C@H]2c2ccc(F)cc2)cc1', 0.325),
  ('COc1cc2c(cc1O)C(C)N(Cc1sc3ccccc3c1Cl)CC2 (configuration not stated)', 0.426);

Task item: Item CCOC(=O)C[C@H]1[C@H](OC(=O)c2ccc(-c3ccccc3)cc2)[C@@H](NC(=O)c2ccc(-c3ccccc3)cc2)c2cc(OCCCO)ccc2N1C(=O)c1ccccc1 has what recorded composite z-score?
Reply: 0.412

Task item: Item CC(C)N1C(=O)[C@@]2(Cc3ccccc31)c1ccccc1C(=O)N(Cc1ccccc1C(F)(F)F)[C@H]2c1ccc(CO)cc1 has what recorded composite z-score?
Reply: -0.0247

Task item: Item CCOC(=O)C[C@H]1[C@H](OC(=O)c2cc3ccccc3oc2=O)[C@@H](NC(=O)c2ccc(-c3ccccc3)cc2)c2cc(OCCCO)ccc2N1C(=O)Cc1ccc(OC)cc1 has what recorded composite z-score?
Reply: 0.179

Task item: Item C=C(COC)/C(=C/C[C@@H](OC(C)=O)c1cccc(OCCO)c1)c1cnc2ccccc2c1 has what recorded composite z-score?
Reply: -0.0065

Task item: Item O=C1NC(=O)C2C1C=CC(C(O)C(O)CO)N2Nc1ccccn1 (configuration not stated) has what recorded composite z-score?
Reply: -0.201

Task item: Item COc1ccc(-c2cc3c(c(CCc4ccccc4)n2)[Si](C(C)C)(C(C)C)O[C@H]3c2ccccc2)cn1 has what recorded composite z-score?
Reply: -0.158

Each recorded value in this set is attributed to PubChem BioAssay.
